Kindly state TGI MEL-28 for each of the entries shown.
tested on: SK-MEL-28; assay: SRB colorimetric assay of cell growth and viability, SK-MEL-28; format: cell-based, human; conditions: 48 hours exposure
Where a SMILES comes first, the peptide text is derived from it. Bridges are numbered along the chain shown (N, C = ends). [ ]: non-standard residue; d: D form. The star is where a group is joined. d(aThr) = C[C@@H](O)[C@@H](N)C(=O)O; Hexanoyl(5-Me) = CC(C)CCCC(=O)*; Orn = NCCC[C@H](N)C(=O)O; Dhb = C/C=C(\N)C(=O)O
The answer consists of two parts: a number and, after it, its unit.

C/C=C1\NC(=O)[C@H](Cc2ccccc2)NC(=O)[C@@H](C(C)C)NC(=O)[C@@H](C(C)C)NC(=O)[C@H](NC(=O)[C@H](NC(=O)[C@H](CCCN)NC(=O)[C@H]2CCCN2C(=O)[C@H](NC(=O)[C@@H](NC(=O)[C@@H](NC(=O)[C@H](NC(=O)CCCC(C)C)C(C)C)[C@@H](C)O)C(C)C)C(C)C)C(C)C)[C@@H](C)OC(=O)[C@H](C(C)C)NC1=O [Compound 12, [D-Val^5, D-Val^7]-KF] ({Hexanoyl(5-Me)}-[dV]TV[dV][dP][Orn][dV][d(aThr)][dV][dV]F[Dhb]V; ester 8-C)	3.12E−06 Molar

Please turn your attention to the following entry.
Reported TGI MEL-28, compound C/C=C1\NC(=O)[C@H](Cc2ccccc2)NC(=O)[C@@H](C(C)C)NC(=O)[C@@H]([C@@H](C)CC)NC(=O)[C@H](NC(=O)[C@H](NC(=O)[C@H](CCCN)NC(=O)[C@H]2CCCN2C(=O)[C@H](NC(=O)[C@@H](NC(=O)[C@@H](NC(=O)[C@@H](CCC(=O)O)NC(=O)CCCC(C)C)[C@@H](C)O)C(C)C)C(C)C)[C@@H](C)CC)[C@@H](C)OC(=O)[C@H](C(C)C)NC1=O [Compound 39, [D-Glu^13]-KF] : ____
6.63E−06 Molar

====

tested on: K-562; assay: SRB colorimetric assay of cell growth and viability, K-562; assay type: cell-based, human; settings: K-562; 48 hours exposure
Where a SMILES comes first, the peptide text is derived from it. Bridges are numbered along the chain shown (N, C = ends). [ ]: non-standard residue; d: D form. The star is where a group is joined. d(aIle) = CC[C@H](C)[C@@H](N)C(=O)O; d(aThr) = C[C@@H](O)[C@@H](N)C(=O)O; Hexanoyl(5-Me) = CC(C)CCCC(=O)*; Orn = NCCC[C@H](N)C(=O)O; Dhb = C/C=C(\N)C(=O)O
REPORTED_ENDPOINT: TGI K-562 (Molar)
One number for each entry, in Molar.

C/C=C1\NC(=O)[C@H](Cc2ccccc2)NC(=O)[C@@H](C(C)C)NC(=O)[C@@H]([C@@H](C)CC)NC(=O)[C@H](NC(=O)[C@H](NC(=O)[C@H](CCCNC(=O)CCCC[C@@H]2SC[C@@H]3NC(=O)N[C@@H]32)NC(=O)[C@H]2CCCN2C(=O)[C@H](NC(=O)[C@@H](NC(=O)[C@@H](NC(=O)[C@H](NC(=O)CCCC(C)C)C(C)C)[C@@H](C)O)C(C)C)C(C)C)[C@@H](C)CC)[C@@H](C)OC(=O)[C@H](C(C)C)NC1=O [Compound 99, [Orn(Biot)^8]-Kahalalide F]	5.87E−06
C/C=C1\NC(=O)[C@H](Cc2cccc(Cl)c2)NC(=O)[C@@H](C(C)C)NC(=O)[C@@H]([C@@H](C)CC)NC(=O)[C@H](NC(=O)[C@H](NC(=O)[C@H](CCCN)NC(=O)[C@H]2CCCN2C(=O)[C@H](NC(=O)[C@@H](NC(=O)[C@@H](NC(=O)[C@H](NC(=O)CCCC(C)C)C(C)C)[C@@H](C)O)C(C)C)C(C)C)[C@@H](C)CC)[C@@H](C)OC(=O)[C@H](C(C)C)NC1=O [Compound 82, [Phe(3-Cl)^3]-KF]	1.02E−06
C/C=C1\NC(=O)[C@H](Cc2ccccc2)NC(=O)[C@@H](C(C)C)NC(=O)[C@@H]([C@@H](C)CC)NC(=O)[C@H](NC(=O)[C@H](NC(=O)[C@H](CCCN)NC(=O)[C@H]2CCCN2C(=O)[C@H](NC(=O)[C@@H](NC(=O)[C@@H](NC(=O)[C@@H](C(C)C)N(CCCCCCC)CCCCCCC)[C@@H](C)O)C(C)C)C(C)C)[C@@H](C)CC)[C@@H](C)OC(=O)[C@H](C(C)C)NC1=O [Compound 98]	6.40E−06
C/C=C1\NC(=O)[C@H](Cc2ccccc2)NC(=O)[C@@H](C(C)C)NC(=O)[C@@H]([C@@H](C)CC)NC(=O)[C@H](NC(=O)[C@H](NC(=O)[C@H](CCCN)NC(=O)[C@H]2CCCN2C(=O)[C@H](NC(=O)[C@@H](NC(=O)[C@@H]2CCCN2C(=O)[C@H](NC(=O)CCCC(C)C)C(C)C)C(C)C)C(C)C)[C@@H](C)CC)[C@@H](C)OC(=O)[C@H](C(C)C)NC1=O [Compound 117, [Pro^12]-KF] ({Hexanoyl(5-Me)}-[dV]PV[dV][dP][Orn][d(aIle)][d(aThr)][d(aIle)][dV]F[Dhb]V; ester 8-C)	2.10E−06

Query molecule follows.
Reported TGI K-562, molecule C/C=C1\NC(=O)[C@H](Cc2ccccc2)NC(=O)[C@@H](C(C)C)NC(=O)[C@@H]([C@@H](C)CC)NC(=O)[C@H](NC(=O)[C@H](NC(=O)[C@H](CCCN)NC(=O)[C@H]2CCCCN2C(=O)[C@H](NC(=O)[C@@H](NC(=O)[C@@H](NC(=O)[C@H](NC(=O)CC[C@@H](C)CC)C(C)C)[C@@H](C)O)C(C)C)C(C)C)[C@@H](C)CC)[C@@H](C)OC(=O)[C@H](C(C)C)NC1=O [Compound 60, [D-Pip^9, (4S)-MeHex^14]-KF] : ____
6.70E−06

====

tested on: LoVo; experiment: SRB colorimetric assay of cell growth and viability, LoVo; assay type: cell-based, human; settings: 48 hours exposure; read-out: LC50 LOVO
Where a SMILES comes first, the peptide text is derived from it. Bridges are numbered along the chain shown (N, C = ends). [ ]: non-standard residue; d: D form. The star is where a group is joined. d(aIle) = CC[C@H](C)[C@@H](N)C(=O)O; d(aThr) = C[C@@H](O)[C@@H](N)C(=O)O; Hexanoyl(5-Me) = CC(C)CCCC(=O)*; Orn = NCCC[C@H](N)C(=O)O; Dhb = C/C=C(\N)C(=O)O
REPORTED_ENDPOINT: CC50 (µM)
Give bare numbers, in µM.

The following compounds have reported results that may help.
C/C=C1\NC(=O)[C@H](Cc2ccccc2)NC(=O)[C@@H](C(C)C)NC(=O)[C@@H]([C@@H](C)CC)NC(=O)[C@H](NC(=O)[C@H](NC(=O)[C@H](CCCN)NC(=O)[C@H]2CCCN2C(=O)[C@H](NC(=O)CNC(=O)[C@@H](NC(=O)[C@H](NC(=O)CCCC(C)C)C(C)C)[C@@H](C)O)C(C)C)[C@@H](C)CC)[C@@H](C)OC(=O)[C@H](C(C)C)NC1=O [Compound 42, [Gly^11]-KF] ({Hexanoyl(5-Me)}-[dV]TG[dV][dP][Orn][d(aIle)][d(aThr)][d(aIle)][dV]F[Dhb]V; ester 8-C)	6.96
C/C=C1\NC(=O)[C@H](Cc2ccccc2)NC(=O)[C@@H](C(C)C)NC(=O)[C@@H]([C@@H](C)CC)NC(=O)[C@H](NC(=O)[C@H](NC(=O)[C@H](CCCN)NC(=O)[C@H]2CCCN2C(=O)[C@H](NC(=O)[C@@H](NC(=O)[C@@H](NC(=O)[C@@H](NC(=O)CCCC(C)C)C(C)C)[C@@H](C)O)C(C)C)C(C)C)[C@@H](C)CC)[C@@H](C)OC(=O)[C@H](C(C)C)NC1=O [Compound 38, [Val^13]-KF]	4.47
C/C=C1\NC(=O)[C@H](Cc2ccccc2)NC(=O)[C@@H](C(C)C)NC(=O)[C@@H]([C@@H](C)CC)NC(=O)[C@H](NC(=O)[C@H](NC(=O)[C@H](CCCN)NC(=O)[C@H]2CCCN2C(=O)[C@H](NC(=O)[C@@H](NC(=O)[C@@H](NC(=O)[C@H](NC(=O)CCCCCCCCCCCCCCCCCCC)C(C)C)[C@@H](C)O)C(C)C)C(C)C)[C@@H](C)CC)[C@@H](C)OC(=O)[C@H](C(C)C)NC1=O [Compound 13, [Icos^14]-KF]	3.58
C/C=C1\NC(=O)[C@H](Cc2ccccc2)NC(=O)[C@@H](C(C)C)NC(=O)[C@@H]([C@@H](C)CC)NC(=O)[C@H](NC(=O)[C@H](NC(=O)[C@H](CCCCN)NC(=O)[C@H]2CCCN2C(=O)[C@H](NC(=O)[C@@H](NC(=O)[C@@H](NC(=O)[C@H](NC(=O)CC[C@@H](C)CC)C(C)C)[C@@H](C)O)C(C)C)C(C)C)[C@@H](C)CC)[C@@H](C)OC(=O)[C@H](C(C)C)NC1=O [Compound 30, [Lys^8, (4S)-MeHex^14]-KF]	0.444

Please examine the following record next.
Endpoint output: CC50 of C/C=C1\NC(=O)[C@H](Cc2ccccc2)NC(=O)[C@@H](C(C)C)NC(=O)[C@@H]([C@@H](C)CC)NC(=O)[C@H](NC(=O)[C@H](NC(=O)[C@H](CCCN)NC(=O)[C@H]2CCCN2C(=O)[C@H](NC(=O)[C@@H](NC(=O)[C@@H](NC(=O)[C@H](NC(=O)CCCCCCCCCC)C(C)C)[C@@H](C)O)C(C)C)C(C)C)[C@@H](C)CC)[C@@H](C)OC(=O)[C@H](C(C)C)NC1=O [Compound 15, [Und^14]-KF] . Value?
0.604
